Reported combination Emax values are given for each entry in this list.
System: NCI-H1155 (Non-Small Cell Lung Carcinoma)
Experiment: combination Emax (second highest fraction inhibited in the dose matrix, 72 h); higher = more inhibition; extreme values may be limits of the assay
Field format: numeric only.

Examples with answers:
Compound	Study target	combination Emax
CN(CCO)CC[C@H](CSc1ccccc1)Nc1ccc(S(=O)(=O)NC(=O)c2ccc(N3CCC([C@@H](O)c4ccccc4-c4ccc(Cl)cc4)CC3)cc2)cc1S(=O)(=O)C(F)(F)F [AZD4320] + C1CN(CCC1(C(=O)N[C@@H](CCO)C2=CC=C(C=C2)Cl)N)C3=NC=NC4=C3C=CN4 [Capivasertib] (first compound max 1 µM, 7x7, partner max 3 µM)	NCI-H1155 (Non-Small Cell Lung Carcinoma)	0.904
Cc1cc2ncnn2cc1Nc1ncc2c(n1)n(C1CCOCC1)c(=O)n2C [AZD7648] + C=CCn1c(=O)c2cnc(Nc3ccc(N4CCN(C)CC4)cc3)nc2n1-c1cccc(C(C)(C)O)n1 [AZD1775] (first compound max 10 µM, partner max 1 µM)	NCI-H1155 (Non-Small Cell Lung Carcinoma)	0.485

What does the data say about its combination Emax? Entry: COc1nnc2ccc(N3CCC(c4ccc(OCCN5CCN(C)C(=O)[C@H]5C)cc4)CC3)nn12 [AZD5153] + CN(CC[C@H](CSC1=CC=CC=C1)NC2=C(C=C(C=C2)S(=O)(=O)NC(=O)C3=CC=C(C=C3)N4CCC(CC4)[C@H](C5=CC=CC=C5C6=CC=C(C=C6)Cl)O)S(=O)(=O)C(F)(F)F)CCO [AZD4320] (first compound max 1 µM, 7x7, partner max 1 µM)
0.974

====

System: EB-3 (Burkitt's Lymphoma)
Assay: combination Emax (second highest fraction inhibited in the dose matrix, 72 h); higher = more inhibition; extreme values may be limits of the assay
Measured property: combination Emax
Provide a numeric answer; units are not to be included.

The cases that follow already have their combination Emax on record.
Compound	Measured property	Readout value
C=CCn1c(=O)c2cnc(Nc3ccc(N4CCN(C)CC4)cc3)nc2n1-c1cccc(C(C)(C)O)n1 [AZD1775] + O=C(c1cc(Cc2n[nH]c(=O)c3ccccc23)ccc1F)N1CCN(C(=O)C2CC2)CC1 [Olaparib] (first compound max 1 µM, partner max 10 µM)	combination Emax	0.73
CN(CCO)CC[C@H](CSc1ccccc1)Nc1ccc(S(=O)(=O)NC(=O)c2ccc(N3CCC([C@@H](O)c4ccccc4-c4ccc(Cl)cc4)CC3)cc2)cc1S(=O)(=O)C(F)(F)F [AZD4320] + C[C@@H](Nc1cc(F)cc(F)c1)c1cc(C(=O)N(C)C)cc2c(=O)cc(N3CCOCC3)oc12 [AZD8186] (first compound max 1 µM, 7x7, partner max 3 µM)	combination Emax	0.332
CN(CCO)CC[C@H](CSc1ccccc1)Nc1ccc(S(=O)(=O)NC(=O)c2ccc(N3CCC([C@@H](O)c4ccccc4-c4ccc(Cl)cc4)CC3)cc2)cc1S(=O)(=O)C(F)(F)F [AZD4320] + CCN(CCO)CCCOc1ccc2c(Nc3cc(CC(=O)Nc4cccc(F)c4)[nH]n3)ncnc2c1 [AZD2811] (first compound max 1 µM, 7x7, partner max 1 µM)	combination Emax	0.241
CN(CCO)CC[C@H](CSc1ccccc1)Nc1ccc(S(=O)(=O)NC(=O)c2ccc(N3CCC([C@@H](O)c4ccccc4-c4ccc(Cl)cc4)CC3)cc2)cc1S(=O)(=O)C(F)(F)F [AZD4320] + C1CN(CCC1(C(=O)N[C@@H](CCO)C2=CC=C(C=C2)Cl)N)C3=NC=NC4=C3C=CN4 [Capivasertib] (first compound max 1 µM, 7x7, partner max 3 µM)	combination Emax	0.191
CC(=O)c1c(C)c2cnc(Nc3ccc(N4CCNCC4)cn3)nc2n(C2CCCC2)c1=O [Palbociclib] + Cn1cnc2c(F)c(Nc3ccc(Br)cc3Cl)c(C(=O)NOCCO)cc21 [Selumetinib] (first compound max 10 µM, 7x7, partner max 10 µM)	combination Emax	0.374

Proceeding to the next compound to report its combination Emax.
Quick one: combination Emax for CS(=O)(=O)CCNCc1ccc(-c2ccc3ncnc(Nc4ccc(OCc5cccc(F)c5)c(Cl)c4)c3c2)o1 [Lapatinib] + Cn1cnc2c(F)c(Nc3ccc(Br)cc3Cl)c(C(=O)NOCCO)cc21 [Selumetinib] (first compound max 10 µM, 7x7, partner max 10 µM) ?
0.697

====

System: NKM-1 (Acute Myeloid Leukemia)
Experiment: combination Emax (second highest fraction inhibited in the dose matrix, 72 h); higher = more inhibition; extreme values may be limits of the assay
The following molecules are listed with their measured combination Emax values.
Just the number, please, no unit after it.

Molecule	combination Emax
Cc1c2c(nn1C)CSCc1cc(n(C)n1)CSc1cc(c3ccccc3c1)OCCCc1c(C(=O)O)n(C)c3c-2c(Cl)ccc13 [AZD5991] + C[C@@H]1COCCN1C2=NC(=NC(=C2)C3(CC3)[S@](=N)(=O)C)C4=C5C=CNC5=NC=C4 [AZD6738] (first compound max 1 µM, 7x7, partner max 10 µM)	0.995

Report combination Emax for COc1nnc2ccc(N3CCC(c4ccc(OCCN5CCN(C)C(=O)[C@H]5C)cc4)CC3)nn12 [AZD5153] + Cc1c2c(nn1C)CSCc1cc(n(C)n1)CSc1cc(c3ccccc3c1)OCCCc1c(C(=O)O)n(C)c3c-2c(Cl)ccc13 [AZD5991] (first compound max 1 µM, 7x7, partner max 1 µM) please.
1

Try this molecule next: Cn1cnc2c(F)c(Nc3ccc(Br)cc3Cl)c(C(=O)NOCCO)cc21 [Selumetinib] + CCN(CCO)CCCOc1ccc2c(Nc3cc(CC(=O)Nc4cccc(F)c4)[nH]n3)ncnc2c1 [AZD2811] (first compound max 10 µM, 7x7, partner max 1 µM)
0.758

Same read-out for C[C@@H](Oc1cc(-c2cnn(C3CCNCC3)c2)cnc1N)c1c(Cl)ccc(F)c1Cl [Crizotinib] + CC1=C(C(=CC=C1)Cl)NC(=O)C2=CN=C(S2)NC3=CC(=NC(=N3)C)N4CCN(CC4)CCO [Dasatinib] (first compound max 10 µM, 7x7, partner max 2 µM) ?
0.971

====

In this section, each of the molecules is paired with its reported combination Emax.
Tested on: 786-0 (Kidney Carcinoma)
Assay: combination Emax (second highest fraction inhibited in the dose matrix, 72 h); higher = more inhibition; extreme values may be limits of the assay
The reply should be a number, written without any unit.

Molecule	combination Emax
COc1cccc2c1C(=O)c1c(O)c3c(c(O)c1C2=O)C[C@@](O)(C(=O)CO)C[C@@H]3O[C@H]1C[C@H](N)[C@H](O)[C@H](C)O1 [Doxorubicin] + Cc1cc2ncnn2cc1Nc1ncc2c(n1)n(C1CCOCC1)c(=O)n2C [AZD7648] (first compound max 1 µM, 7x7, partner max 10 µM)	0.82

From here, focus on the item given below.
Give 786-0 (Kidney Carcinoma) combination Emax for COc1cc2c(cc1OCCCCCOc1cc3c(cc1OC)C(=O)N1C=C(C)C[C@H]1C=N3)N=C[C@@H]1CC(C)=CN1C2=O [SG3199] + O=C(c1cc(Cc2n[nH]c(=O)c3ccccc23)ccc1F)N1CCN(C(=O)C2CC2)CC1 [Olaparib] (first compound max 0.001 µM, 7x7, partner max 10 µM)
0.0509

====

Tested on: NCI-H1755 (Lung Adenocarcinoma);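 further: after 72 h of two-drug dosing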
Experiment: Bliss excess, mean over the matrix (fraction); higher = more synergy
Think of 0.008 as a floor: if Bliss excess stands on it or above, it is Criterion met; beneath it, Criterion not met.

Some solved entries appear below for comparison.
Compound	Cat
CC1(C)CCC(CN2CCN(c3ccc(C(=O)NS(=O)(=O)c4ccc(NCC5CCOCC5)c([N+](=O)[O-])c4)c(Oc4cnc5[nH]ccc5c4)c3)CC2)=C(c2ccc(Cl)cc2)C1 [Venetoclax] + C[C@@H]1COCCN1C2=NC(=NC(=C2)C3(CC3)[S@](=N)(=O)C)C4=C5C=CNC5=NC=C4 [AZD6738] (first compound max 1 µM, 7x7, partner max 10 µM)	Criterion not met
Cn1cnc2c(F)c(Nc3ccc(Br)cc3Cl)c(C(=O)NOCCO)cc21 [Selumetinib] + C[C@@H]1COCCN1C2=NC(=NC(=C2)C3(CC3)[S@](=N)(=O)C)C4=C5C=CNC5=NC=C4 [AZD6738] (first compound max 10 µM, 7x7, partner max 10 µM)	Criterion met
CN(CCO)CC[C@H](CSc1ccccc1)Nc1ccc(S(=O)(=O)NC(=O)c2ccc(N3CCC([C@@H](O)c4ccccc4-c4ccc(Cl)cc4)CC3)cc2)cc1S(=O)(=O)C(F)(F)F [AZD4320] + C[C@@H](Nc1cc(F)cc(F)c1)c1cc(C(=O)N(C)C)cc2c(=O)cc(N3CCOCC3)oc12 [AZD8186] (first compound max 1 µM, 7x7, partner max 3 µM)	Criterion met
O=C(c1cc(Cc2n[nH]c(=O)c3ccccc23)ccc1F)N1CCN(C(=O)C2CC2)CC1 [Olaparib] + COc1nnc2ccc(N3CCC(c4ccc(OCCN5CCN(C)C(=O)[C@H]5C)cc4)CC3)nn12 [AZD5153] (first compound max 10 µM, 7x7, partner max 1 µM)	Criterion not met
Cc1cc2ncnn2cc1Nc1ncc2c(n1)n(C1CCOCC1)c(=O)n2C [AZD7648] + C=CCn1c(=O)c2cnc(Nc3ccc(N4CCN(C)CC4)cc3)nc2n1-c1cccc(C(C)(C)O)n1 [AZD1775] (first compound max 10 µM, partner max 1 µM)	Criterion met
Cc1c2c(nn1C)CSCc1cc(n(C)n1)CSc1cc(c3ccccc3c1)OCCCc1c(C(=O)O)n(C)c3c-2c(Cl)ccc13 [AZD5991] + C[C@@H]1COCCN1C2=NC(=NC(=C2)C3(CC3)[S@](=N)(=O)C)C4=C5C=CNC5=NC=C4 [AZD6738] (first compound max 1 µM, 7x7, partner max 10 µM)	Criterion not met

Consider the additional compound presented here.
Assess whether reported Bliss excess for Cc1c2c(nn1C)CSCc1cc(n(C)n1)CSc1cc(c3ccccc3c1)OCCCc1c(C(=O)O)n(C)c3c-2c(Cl)ccc13 [AZD5991] + C[C@@H](Nc1cc(F)cc(F)c1)c1cc(C(=O)N(C)C)cc2c(=O)cc(N3CCOCC3)oc12 [AZD8186] (first compound max 1 µM, 7x7, partner max 3 µM) sits at 0.008 or higher.
Criterion met
